experiment: Kinetic solubility determination in PBS; assay type: physicochemical; conditions: phosphate buffered saline (PBS 1×), 21 °C, pH 7.4, aqueous buffer, kinetic from dmso stock, PBS 1X pH 7.4, 2.0% DMSO, 24 hour incubation at ambient temperature, read-out: Solubility in aqueous PBS Buffer (1X, pH 7.4), ug/mL
Reported solubility at 24 h values for the following compounds.
reported.property: solubility at 24 h (µg/mL)

compound="CC[C@H](C)[C@H](NC(=O)Cc1ccccc1)C(=O)NCC(=O)N1c2ccccc2C[C@H]1C(=O)NCc1nn[nH]n1 [Example A1]" reported_property="solubility at 24 h" value_measured=77
compound="CC[C@H](C)[C@H](NC(=O)Cc1ccccc1)C(=O)N[C@@H](C)C(=O)N1c2ccccc2C[C@H]1C(=O)NCc1nn[nH]n1 [Example C11]" reported_property="solubility at 24 h" value_measured=68
compound="CC[C@H](C)[C@H](NC(C)=O)C(=O)NCC(=O)N1c2ccccc2C[C@H]1C(=O)NCc1nn[nH]n1 [Example A15]" reported_property="solubility at 24 h" value_measured=258

###

assay: Kinetic solubility determination in PBS; assay type: physicochemical; settings: phosphate buffered saline (PBS 1×), 21 °C, pH 7.4, aqueous buffer, kinetic from dmso stock, PBS 1X pH 7.4, 2.0% DMSO, 24 hour incubation at ambient temperature, read-out: Solubility in aqueous PBS Buffer (1X, pH 7.4), ug/mL
Counter-ions that a name gives are not always drawn.
Reported solubility at 24 h values for the following compounds.
reported.property: solubility at 24 h

compound="CC[C@H](C)[C@H](NC(=O)Cc1ccccc1)C(=O)NCC(=O)N1c2ccc(N)cc2C[C@H]1C(=O)NCc1nn[nH]n1 [Example C32, Hydrochloride]" value_measured="> 438 µg/mL"
compound="CC[C@H](C)[C@H](NC(=O)Cc1csc2ccccc12)C(=O)NCC(=O)N1c2ccccc2C[C@H]1C(=O)NCc1nn[nH]n1 [Example A27]" value_measured="31 µg/mL"
compound="O=C(O)CCC(=O)N[C@H](C(=O)NCC(=O)N1c2ccccc2C[C@H]1C(=O)NCc1nn[nH]n1)c1cccs1 [Example C24]" value_measured="> 405 µg/mL"
compound="CC[C@H](C)[C@H](NC(=O)Cc1ccc(CC(=O)O)cc1)C(=O)NCC(=O)N1c2ccccc2C[C@H]1C(=O)NCc1nn[nH]n1 [Example A34]" value_measured="> 443 µg/mL"

###

Reported solubility at 24 h values for the following molecules.
test: Kinetic solubility determination in PBS; type: physicochemical; conditions: phosphate buffered saline (PBS 1×), 21 °C, pH 7.4, aqueous buffer, kinetic from dmso stock, PBS 1X pH 7.4, 2.0% DMSO, 24 hour incubation at ambient temperature, read-out: Solubility in aqueous PBS Buffer (1X, pH 7.4)
Counter-ions that a name gives are not always drawn.
reported.property: solubility at 24 h (µM)

molecule=CC[C@H](C)[C@H](NC(C)=O)C(=O)NCC(=O)N1c2ccccc2C[C@H]1C(=O)NCc1nn[nH]n1 unit_spec=µM relation_qualifier== value_measured=565
molecule=CC[C@H](C)[C@H](NC(=O)CN(C)CC(=O)O)C(=O)NCC(=O)N1c2ccccc2C[C@H]1C(=O)NCc1nn[nH]n1 unit_spec=µM relation_qualifier== value_measured=724
molecule=CC[C@H](C)[C@H](NC(=O)Cc1ccccc1)C(=O)N[C@@H](C)C(=O)N1c2ccccc2C[C@H]1C(=O)NCc1nn[nH]n1 unit_spec=µM relation_qualifier== value_measured=125
molecule="CC[C@H](C)[C@H](NC(=O)CCCN)C(=O)NCC(=O)N1c2ccccc2C[C@H]1C(=O)NCc1nn[nH]n1 [Example A7, Hydrochloride]" unit_spec=µM relation_qualifier== value_measured=124
molecule=O=C(O)CCC(=O)N[C@H](C(=O)NCC(=O)N1c2ccccc2C[C@H]1C(=O)NCc1nn[nH]n1)c1cccs1 unit_spec=µM relation_qualifier=> value_measured=750
molecule=CC[C@H](C)[C@H](NC(=O)Cc1ccc(CC(=O)O)cc1)C(=O)NCC(=O)N1c2ccccc2C[C@H]1C(=O)NCc1nn[nH]n1 unit_spec=µM relation_qualifier=> value_measured=750

###

target: human Granzyme B (hGzmB) (Homo sapiens); construct: purchased Froelich Lab, Northshore University Health Systems Research Institute, Evanston, Ill., USA; assay: Human Granzyme B enzymatic inhibition assay (fluorogenic, kinetic); format: biochemical; details: activity codes, Table 7; read-out: IC50 Activity Range
Sequence (P10144 21-247): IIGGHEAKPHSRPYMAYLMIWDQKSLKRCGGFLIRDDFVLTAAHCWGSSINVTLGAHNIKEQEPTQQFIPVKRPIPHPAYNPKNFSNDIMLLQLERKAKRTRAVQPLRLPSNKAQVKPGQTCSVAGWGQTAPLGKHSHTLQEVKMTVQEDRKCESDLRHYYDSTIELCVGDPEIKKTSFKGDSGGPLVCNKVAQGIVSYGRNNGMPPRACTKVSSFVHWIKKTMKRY
Where a name gives a salt, the structure may show the parent alone.
reported.property: IC50

compound=CC(C)(C)OC[C@H](NC(=O)Cc1ccccc1)C(=O)NCC(=O)N1c2ccccc2C[C@H]1C(=O)NCc1nn[nH]n1 value_measured="> 10000 nM"
compound=CC[C@H](C)[C@H](NC(=O)Cc1ccccc1)C(=O)N[C@@H](CCC(=O)O)C(=O)N1c2ccccc2C[C@H]1C(=O)NCc1nn[nH]n1 value_measured="100 to 1000 nM"
compound="CC[C@H](C)[C@H](NC(=O)C1CCCC1C(=O)O)C(=O)NCC(=O)N1c2ccccc2C[C@H]1C(=O)NCc1nn[nH]n1 (single isomer, unassigned) [Example A22-1]" value_measured="< 100 nM"
compound="CC[C@H](C)[C@H](NC(=O)Cc1cccc(N)c1)C(=O)NCC(=O)N1c2ccccc2C[C@H]1C(=O)NCc1nn[nH]n1 [Example A9, Hydrochloride]" value_measured="100 to 1000 nM"
compound=CC[C@H](C)[C@H](NC(=O)CC(C)(C)CC(=O)O)C(=O)NCC(=O)N1c2ccccc2C[C@H]1C(=O)NCc1nn[nH]n1 value_measured="< 100 nM"
compound=CC[C@H](C)[C@H](NC(=O)[C@@H](C)c1ccccc1)C(=O)NCC(=O)N1c2ccccc2C[C@H]1C(=O)NCc1nn[nH]n1 value_measured="100 to 1000 nM"
compound="CC[C@H](C)[C@H](NC(=O)C1CCCC1C(=O)O)C(=O)NCC(=O)N1c2ccccc2C[C@H]1C(=O)NCc1nn[nH]n1 (single isomer, unassigned) [Example A57-1]" value_measured="< 100 nM"
compound="CC[C@H](C)[C@H](NC(=O)Cc1ccccc1)C(=O)NCC(=O)N1c2ccc(C)cc2CC1C(=O)NCc1c[nH]nn1 (mixture of isomers)" value_measured="100 to 1000 nM"
compound=CC[C@H](C)[C@H](NC(=O)Cc1ccccc1)C(=O)N[C@@H](CCCC(=O)O)C(=O)N1c2ccccc2C[C@H]1C(=O)NCc1nn[nH]n1 value_measured="1000 to 10000 nM"
compound="CC[C@H](C)[C@H](NC(=O)C1CCCC1C(=O)O)C(=O)NCC(=O)N1c2ccccc2C[C@H]1C(=O)NCc1nn[nH]n1 (single isomer, unassigned) [Example A22-2]" value_measured="< 100 nM"
compound=CC(C)[C@H](NC(=O)CCC(=O)O)C(=O)NCC(=O)N1c2ccccc2C[C@H]1C(=O)NCc1nn[nH]n1 value_measured="< 100 nM"
compound=O=C(O)CCC(=O)NC1(C(=O)NCC(=O)N2c3ccccc3C[C@H]2C(=O)NCc2nn[nH]n2)CCCC1 value_measured="> 10000 nM"
compound=CC[C@H](C)[C@H](NC(=O)Cc1ccccc1)C(=O)NCC(=O)N1c2cc(NC(=O)CCC(=O)O)ccc2C[C@H]1C(=O)NCc1nn[nH]n1 value_measured="< 100 nM"
compound=CC[C@H](C)[C@H](NC(=O)Cc1ccccc1)C(=O)NCC(=O)N1c2cc(NCc3ccccc3)ccc2C[C@H]1C(=O)NCc1nn[nH]n1 value_measured="> 10000 nM"
compound=CC[C@H](C)[C@H](NC(=O)Cc1ccccc1)C(=O)N[C@H](CC(=O)O)C(=O)N1c2ccccc2C[C@H]1C(=O)NCc1nn[nH]n1 value_measured="1000 to 10000 nM"
compound=CC[C@H](C)[C@H](NC(C)=O)C(=O)NCC(=O)N1c2ccccc2C[C@H]1C(=O)NCc1nn[nH]n1 value_measured="100 to 1000 nM"
compound=CC[C@H](C)[C@H](NC(=O)Cc1ccccc1)C(=O)NCC(=O)N1c2ccc(NC(C)(C)C)cc2C[C@H]1C(=O)NCc1nn[nH]n1 value_measured="> 10000 nM"
compound=O=C(O)CCC(=O)N1CCCC[C@H]1C(=O)NCC(=O)N1c2ccccc2C[C@H]1C(=O)NCc1nn[nH]n1 value_measured="1000 to 10000 nM"
compound=O=C(O)CCC(=O)N[C@H](C(=O)NCC(=O)N1c2ccccc2C[C@H]1C(=O)NCc1nn[nH]n1)c1cccs1 value_measured="100 to 1000 nM"
compound="CC[C@H](C)[C@H](NC(=O)CCCN)C(=O)NCC(=O)N1c2ccccc2C[C@H]1C(=O)NCc1nn[nH]n1 [Example A7, Hydrochloride]" value_measured="1000 to 10000 nM"
compound=CC(C)[C@H](NC(=O)Cc1ccccc1)C(=O)NCC(=O)N1c2ccccc2C[C@H]1C(=O)NCc1nn[nH]n1 value_measured="100 to 1000 nM"
compound=CC[C@H](C)[C@H](NC(=O)Cc1ccccc1)C(=O)NCC(=O)N1c2c(cccc2NC(C)=O)C[C@H]1C(=O)NCc1nn[nH]n1 value_measured="> 10000 nM"
compound=CC[C@H](C)[C@H](NC(=O)Cc1ccccn1)C(=O)NCC(=O)N1c2ccccc2C[C@H]1C(=O)NCc1nn[nH]n1 value_measured="100 to 1000 nM"
compound="CC[C@H](C)[C@H](NC(=O)C1CCCC1C(=O)O)C(=O)NCC(=O)N1c2ccccc2C[C@H]1C(=O)NCc1nn[nH]n1 (single isomer, unassigned) [Example A57-2]" value_measured="< 100 nM"
